- Test system: rodent lifetime carcinogenesis bioassay, tumor incidence TD50
- experimental-details: carcinogenic potency in animals, long-term in vivo studies, CPDB compilation (AID 1745844)
- run-parameters: rat; strain Sprague-Dawley; males; in feed; site: all sites; lesion: myeloid leukemia; dosed 78 weeks; study length 104 weeks
The source made the active and inactive calls. The rule behind the calls is not given here.
endpoint: TD50

entry-smiles: CCOc1ccc(NC(C)=O)cc1
measured-value: 2380 mg/kg/day (inactive)

* * *

- Test system: rodent lifetime carcinogenesis bioassay, tumor incidence TD50
- experimental-details: carcinogenic potency in animals, long-term in vivo studies, CPDB compilation (AID 1745844)
- run-parameters: rat; strain Charles River CD (Sprague-Dawley); females; in feed; site: mesovarium; lesion: leiomyoma; dosed 104 weeks; study length 104 weeks
endpoint: TD50

compound: CC(C)(C)NCC(O)c1ccc(O)c(CO)c1 (configuration not stated)
measured-value: 44.6 mg/kg/day

compound: CC(C)(C)NCC(O)c1cc(O)cc(O)c1 (configuration not stated)
measured-value: 410 mg/kg/day

* * *

- System: rodent lifetime carcinogenesis bioassay, tumor incidence TD50
- experimental-details: carcinogenic potency in animals, long-term in vivo studies, CPDB compilation (AID 1745844)
- run-parameters: mouse; strain CF-1; females; in feed; site: lung; lesion: adenoma; dosed 106 weeks; study length 106 weeks
Active and inactive are the calls of the source. The rule behind the calls is not given here.

entry-smiles: ClC1=C(Cl)[C@]2(Cl)[C@@H]3[C@@H]4C[C@@H]([C@H]5O[C@@H]45)[C@@H]3[C@@]1(Cl)C2(Cl)Cl
target-or-system: rodent lifetime carcinogenesis bioassay, tumor incidence TD50
TD50: 5.69 mg/kg/day (inactive)

* * *

- Tested on: rodent lifetime carcinogenesis bioassay, tumor incidence TD50
- experimental-details: carcinogenic potency in animals, long-term in vivo studies, CPDB compilation (AID 1745844)
- run-parameters: rat; strain WKY/NCrj (Wistar); males; in feed; site: forestomach; lesion: squamous-cell papilloma; dosed 104 weeks; study length 104 weeks

entry-smiles: Oc1ccccc1O
TD50 [mg/kg/day]: 6470

* * *

- System: rodent lifetime carcinogenesis bioassay, tumor incidence TD50
- experimental-details: carcinogenic potency in animals, long-term in vivo studies, CPDB compilation (AID 1745844)
- run-parameters: mouse; strain BDF1; females; inhaled; site: liver; lesion: hepatocellular carcinoma; dosed 104 weeks; study length 104 weeks
endpoint: TD50 (mg/kg/day)

entry-smiles: C=C(C)CCl
readout-units: mg/kg/day
measured-value: 60000

* * *

- System: rodent lifetime carcinogenesis bioassay, tumor incidence TD50
- experimental-details: carcinogenic potency in animals, long-term in vivo studies, CPDB compilation (AID 1745844)
- run-parameters: rat; strain Sprague-Dawley; males; by gavage; site: any site (literature study); lesion: several types; types named in the paper; dosed 104 weeks; study length 123 weeks
endpoint: TD50 (mg/kg/day)

entry-smiles: Cc1cccc(C)c1
measured-value: 4070
//
entry-smiles: Cc1ccc(C)c(C)c1
measured-value: 1940

* * *

- Test system: rodent lifetime carcinogenesis bioassay, tumor incidence TD50
- experimental-details: carcinogenic potency in animals, long-term in vivo studies, CPDB compilation (AID 1745844)
- run-parameters: rat; strain Fischer 344; males; inhaled; site: liver; lesion: neoplastic nodule; dosed 104 weeks; study length 106 weeks

entry-smiles: CCBr
readout-units: mg/kg/day
TD50: 1140

* * *

- Tested on: rodent lifetime carcinogenesis bioassay, tumor incidence TD50
- experimental-details: carcinogenic potency in animals, long-term in vivo studies, CPDB compilation (AID 1745844)
- run-parameters: mouse; strain B6AKF1; females; oral dosing; site: lung; lesion: adenoma; dosed 76 weeks; study length 76 weeks
Activity calls are given as the source filed them. The rule behind the calls is not given here.

compound: CCCCN(CCCC)C(=S)[S-].CCCCN(CCCC)C(=S)[S-].[Ni+2]
TD50: 0.0869 mg/kg/day (inactive)
--
compound: CCN(CC)C(=S)SSC(=S)N(CC)CC
TD50: 4140 mg/kg/day
--
compound: c1ccc2cc(Nc3ccc(Nc4ccc5ccccc5c4)cc3)ccc2c1
TD50: 221 mg/kg/day (inactive)
--
compound: Oc1c(Cl)cc(Cl)cc1Sc1cc(Cl)cc(Cl)c1O
TD50: 100 mg/kg/day
--
compound: O=C1NCCN1
TD50: 505 mg/kg/day (inactive)
--
compound: Clc1ccc(C(c2ccccc2Cl)C(Cl)Cl)cc1 (centres undefined)
TD50: 236 mg/kg/day
--
compound: CCN(CC)C(=S)S
TD50: 607 mg/kg/day
--
compound: CCCCN(CC)C(=O)SCCC
TD50: 113 mg/kg/day (inactive)
--
compound: Clc1ccc(C(c2ccc(Cl)cc2)C(Cl)Cl)cc1
TD50: 73 mg/kg/day
--
compound: CCN(CC)C(=S)S[Te](SC(=S)N(CC)CC)(SC(=S)N(CC)CC)SC(=S)N(CC)CC
TD50: 28.2 mg/kg/day
--
compound: CCCOC(=O)C1c2cc3c(cc2CC(C)C1C(=O)OCCC)OCO3 (centres undefined)
TD50: 4690 mg/kg/day (inactive)
--
compound: S=C([S-])NCCNC(=S)[S-].[Zn+2]
TD50: 1150 mg/kg/day (inactive)
--
compound: CCCCOCCOCCOCc1cc2c(cc1CCC)OCO2
TD50: 265 mg/kg/day
--
compound: COC(C(=O)O)c1ccccc1 (centres undefined)
TD50: 236 mg/kg/day (inactive)
--
compound: CC(=O)[O][Sn]([c]1ccccc1)([c]1ccccc1)[c]1ccccc1
TD50: 964 mg/kg/day (inactive)
--
compound: O=NN(c1ccccc1)c1ccccc1
TD50: 1020 mg/kg/day
--
compound: OC[C@@H](O)[C@H]1O[C@@H]2O[C@H](C(Cl)(Cl)Cl)O[C@@H]2[C@H]1O
TD50: 19.5 mg/kg/day (inactive)
--
compound: O=[N+]([O-])c1cc([N+](=O)[O-])c(Cl)c(Cl)c1Cl
TD50: 108 mg/kg/day
--
compound: CCCCN(CCCC)C(=S)[S-].CCCCN(CCCC)C(=S)[S-].[Zn+2]
TD50: 1090 mg/kg/day (inactive)
